Field: MIC. Provide a value for each of the compounds that follow.
Tested on: carbapenemase producing K. pneumoniae
PROTOCOL_DETAILS: MIC by broth micro-dilution (CLSI), carbapenemase producing K. pneumoniae
Format: cell-based, Klebsiella pneumoniae
STATED_CONDITIONS: Klebsiella pneumoniae, ATCCBAA1705, KPC-2 K. pneumoniae ATCC BAA-1705; read-out: MIC
Only the number, expressed in µg/mL, is required.

-- ask Report MIC for CNCC(=O)N[C@H](C)[C@H]1C(=O)N2C(C(=O)O)=C(S[C@@H]3CN[C@H](CNC(=O)[C@@H]4CCC(N)C4)C3)[C@H](C)[C@H]12 (stereo partly drawn) [Example 262] please.
-- reply 16

-- ask And the next one, C[C@@H](NC(=O)Cn1cnnn1)[C@H]1C(=O)N2C(C(=O)O)=C(S[C@@H]3CN[C@H](C(=O)N4CC(N)C(N)C4)C3)[C@H](C)[C@H]12 (stereo partly drawn) [Example 413] ?
-- reply 2

-- ask And the next one, C[C@@H](NC(=O)C(F)F)[C@H]1C(=O)N2C(C(=O)O)=C(S[C@@H]3CN[C@H](C(=O)NCCC(=O)NCCO)C3)[C@H](C)[C@H]12 [Example 116] ?
-- reply 4
